System: ZR-75-1 cells
Assay: Caspase cascade activation (N-(Ac-DEVD)-N'-ethoxycarbonyl-R110 fluorogenic substrate) in ZR-75-1 cells
Type: cell-based, Human
Conditions: caspase activity: ratio of net RFU of test compound to control; ZR-75-1, 48 h incubation
Protocol: Human breast cancer cell lines T-47D and ZR-75-1 were grown according to media component mixtures designated by American Type Culture Collection +10% FCS (Invitrogen Corporation, Life Technologies division), in a 5% CO2-95% humidity incubator at 37° C. […] After the 3 h incubation, the samples were read for fluorescence as above (T=3 h). The Relative Fluorescence Unit values (RFU) were used to calculate the sample readings as follows: […]
MEASURE: ZR Ratio 48 hr
Enter the number alone.

Worked cases, ZR Ratio 48 hr given:
> print(dat)
                                   compound  test.result
1  Cc1ccc(O)cc1Nc1cc(C(F)(F)F)nc(-c2ccccn2)n1 [Example 188]          9.3
2  COc1ccc(Cl)cc1Nc1cc(C(F)(F)F)nc(-c2cccnc2)n1 [Example 180]          8.7
3  Cc1ccc(O)cc1Nc1cc(C(F)(F)F)nc(-c2ccncc2)n1 [Example 118]          9.9
4  CCc1cccc(Nc2cc(C(F)(F)F)nc(-c3ccccn3)n2)c1 [Example 93]          8.2
5  FC(F)(F)c1cc(Nc2ccc3[nH]ccc3c2)nc(-c2cccnc2)n1 [Example 166]          3.3

Inquiry: Entry COc1ccc(OC)c(Nc2cc(C(F)(F)F)nc(-c3ccccc3)n2)c1 [Example 75] needs its ZR Ratio 48 hr filled in; supply it.
Reply text: 7.8

Inquiry: Entry COc1ccc(Cl)c(Nc2cc(C(F)(F)F)nc(-c3cc(Cl)nc(Cl)c3)n2)c1 [Example 164] needs its ZR Ratio 48 hr filled in; supply it.
Reply text: 1.3

Inquiry: Entry FC(F)(F)c1cc(Nc2cccc3[nH]ccc23)nc(-c2ccccn2)n1 [Example 212] needs its ZR Ratio 48 hr filled in; supply it.
Reply text: 6.1

Inquiry: Entry COc1ccc(C)cc1Nc1cc(C(F)(F)F)nc(-c2ccccn2)n1 [Example 190] needs its ZR Ratio 48 hr filled in; supply it.
Reply text: 16.7

====

Listing of entries alongside the reported ZR Ratio 48 hr.
Test system: ZR-75-1 cells
Assay: Caspase cascade activation (N-(Ac-DEVD)-N'-ethoxycarbonyl-R110 fluorogenic substrate) in ZR-75-1 cells
Assay type: cell-based, Human
Conditions: caspase activity: ratio of net RFU of test compound to control; ZR-75-1, 48 h incubation

Worked cases, ZR Ratio 48 hr given:
> print(dat)
                            compound.smiles  test.result
1  Cl.Oc1cccc(Nc2cc(C(F)(F)F)nc(-c3ccccn3)n2)c1         10.9
2  COc1cc(Nc2cc(C(F)(F)F)nc(-c3cccnc3)n2)cc(C(F)(F)F)c1         16.3
3  COc1cc(C#N)c(Nc2cc(C(F)(F)F)nc(-c3cccnc3)n2)cc1OC          3.4

Inquiry: Entry Oc1ccc(Cl)cc1Nc1cc(C(F)(F)F)nc(-c2cnccn2)n1 needs its ZR Ratio 48 hr filled in; supply it.
Reply text: 1.8

Inquiry: Entry Cc1ccc(O)cc1Nc1cc(C(F)(F)F)nc(-c2cccnc2)n1 needs its ZR Ratio 48 hr filled in; supply it.
Reply text: 6.3

Inquiry: Entry COc1ccc(Nc2cc(C(F)(F)F)nc(-c3cccnc3)n2)c(OC)n1 needs its ZR Ratio 48 hr filled in; supply it.
Reply text: 2.9

Inquiry: Entry COc1cc(C)c(Nc2cc(C(F)(F)F)nc(-c3cnccn3)n2)cc1OC.Cl needs its ZR Ratio 48 hr filled in; supply it.
Reply text: 9.3

Inquiry: Entry COc1ccc(Cl)c(Nc2cc(C(F)(F)F)nc(-c3ccncc3)n2)c1 needs its ZR Ratio 48 hr filled in; supply it.
Reply text: 5.9

Inquiry: Entry COc1cccc(Nc2cc(C(F)(F)F)nc(-c3cnccn3)n2)c1 needs its ZR Ratio 48 hr filled in; supply it.
Reply text: 13.1
